biological target: α4β1 integrin receptor (Homo sapiens, UniProt P05556+P13612); construct: Ramos Cell Adhesion Assay (α4β1 Mediated Adhesion/VCAM-1); endogenous in cells; host or cells: Ramos cells; assay: Ramos Cell Adhesion Assay (α4β1 Mediated Adhesion/VCAM-1); assay type: cell-based; conditions: Table III; read-out: Inhibition of Binding of Ramos Cells to Immobilized VCAM-1 IC50
Sequence (P13612 34-1032): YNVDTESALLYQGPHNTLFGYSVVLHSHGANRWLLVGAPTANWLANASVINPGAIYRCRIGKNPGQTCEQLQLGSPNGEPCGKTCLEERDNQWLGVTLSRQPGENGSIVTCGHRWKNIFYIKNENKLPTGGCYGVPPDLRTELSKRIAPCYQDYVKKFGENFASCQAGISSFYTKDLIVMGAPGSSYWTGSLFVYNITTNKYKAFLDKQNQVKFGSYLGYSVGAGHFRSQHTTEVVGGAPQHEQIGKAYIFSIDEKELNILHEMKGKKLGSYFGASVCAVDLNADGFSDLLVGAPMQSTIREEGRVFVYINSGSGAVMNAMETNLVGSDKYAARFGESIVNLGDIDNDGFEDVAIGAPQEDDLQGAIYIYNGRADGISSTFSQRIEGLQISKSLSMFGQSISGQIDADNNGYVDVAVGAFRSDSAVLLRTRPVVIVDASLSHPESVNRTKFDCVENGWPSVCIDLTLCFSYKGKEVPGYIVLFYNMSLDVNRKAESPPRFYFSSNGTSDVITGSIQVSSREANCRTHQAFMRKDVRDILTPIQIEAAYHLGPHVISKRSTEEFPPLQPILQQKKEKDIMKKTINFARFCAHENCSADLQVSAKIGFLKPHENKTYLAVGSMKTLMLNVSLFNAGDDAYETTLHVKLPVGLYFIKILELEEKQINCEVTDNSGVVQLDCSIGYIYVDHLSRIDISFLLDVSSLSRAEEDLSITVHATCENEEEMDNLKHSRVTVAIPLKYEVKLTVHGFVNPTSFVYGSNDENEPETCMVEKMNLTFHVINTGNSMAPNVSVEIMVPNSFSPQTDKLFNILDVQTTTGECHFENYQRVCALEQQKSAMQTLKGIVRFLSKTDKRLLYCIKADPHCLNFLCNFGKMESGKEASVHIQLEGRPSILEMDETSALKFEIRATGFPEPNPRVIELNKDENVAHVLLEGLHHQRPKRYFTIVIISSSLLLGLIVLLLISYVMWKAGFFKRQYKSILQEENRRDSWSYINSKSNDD
Sequence (P05556 21-798): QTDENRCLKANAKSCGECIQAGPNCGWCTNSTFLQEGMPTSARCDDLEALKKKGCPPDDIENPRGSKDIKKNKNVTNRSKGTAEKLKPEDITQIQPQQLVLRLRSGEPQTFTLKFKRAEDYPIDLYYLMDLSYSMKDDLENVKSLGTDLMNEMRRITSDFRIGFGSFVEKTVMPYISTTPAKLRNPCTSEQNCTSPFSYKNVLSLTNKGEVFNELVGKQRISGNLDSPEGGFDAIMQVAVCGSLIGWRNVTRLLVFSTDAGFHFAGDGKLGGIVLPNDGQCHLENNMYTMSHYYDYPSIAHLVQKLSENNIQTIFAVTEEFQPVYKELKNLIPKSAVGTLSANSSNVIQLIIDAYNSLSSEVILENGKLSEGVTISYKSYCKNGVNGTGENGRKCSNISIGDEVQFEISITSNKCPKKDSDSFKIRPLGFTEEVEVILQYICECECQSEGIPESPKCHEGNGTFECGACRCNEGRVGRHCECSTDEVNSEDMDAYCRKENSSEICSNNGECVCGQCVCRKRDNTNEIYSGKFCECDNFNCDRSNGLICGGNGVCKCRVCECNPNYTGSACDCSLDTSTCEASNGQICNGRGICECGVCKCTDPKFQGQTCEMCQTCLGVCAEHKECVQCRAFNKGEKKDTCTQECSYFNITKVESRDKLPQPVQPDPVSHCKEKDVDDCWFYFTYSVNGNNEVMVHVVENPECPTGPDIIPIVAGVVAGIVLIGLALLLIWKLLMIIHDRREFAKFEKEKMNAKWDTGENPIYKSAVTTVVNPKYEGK
Examples of compounds with documented pIC50 follow.
FYI, pIC50 means -log10 of a concentration in mol per litre.

# COMPOUND, REPORTED_ENDPOINT, REPORTED_MEASUREMENT
records = [
    ("O=C(Nc1ccc(C[C@H](NC(=O)C2C3CCC(CC3)N2S(=O)(=O)c2ccccc2)C(=O)O)cc1)c1c(F)cc(F)cc1F (stereo partly shown) [Cpd 43]", "pIC50", 6.99),
]

# context switch: different compound, same pIC50
Given the compound Cc1ccc(S(=O)(=O)N2C3CCC(CC3)C2C(=O)N[C@@H](Cc2ccc(NC(=O)c3c(Cl)cccc3Cl)cc2)C(=O)O)cc1 (mixture of isomers) [Cpd 1] , what is its reported pIC50? 7.35

All figures here come from patent US6960597B2.
